# Tested on: Phosphorylation of ERK1/2 in A549 cells
# assay.name: Phospho-ERK1/2 MSD Assay, A549 (Table 16 conditions: 2 hours compound treatment)
# Type: cell-based
# stated.conditions: Homo sapiens, 10 ng/mL EGF for 10 min, read-out: p-ERK IC50 (A549)
quantity.name: IC50

test.smiles	quantity.name	meas.value
C=CC(=O)N1CCN(c2nc(=O)n(-c3c(C)cccc3C(C)C)c3nc(-c4c(O)cccc4F)c(Cl)cc23)[C@@H](C)C1	IC50	> 100 µM

// next entry
INPUT: Lab note: Phosphorylation of ERK1/2 in A549 cells assay, enter IC50 for `C=CC(=O)N1CCN(c2nc(=O)n(-c3scnc3C(C)C)c3nc(-c4c(O)cccc4F)c(Cl)cc23)[C@@H](C)C1` here
OUTPUT: > 10 µM

* * *

# target.entity: GDP-bound KRAS protein (aa 1-169), containing both G12C and C118A amino acid substitutions (Homo sapiens, UniProt P01116, C118A/G12C)
# Sequence (P01116 1-169 isoform P01116-2 G12C/C118A): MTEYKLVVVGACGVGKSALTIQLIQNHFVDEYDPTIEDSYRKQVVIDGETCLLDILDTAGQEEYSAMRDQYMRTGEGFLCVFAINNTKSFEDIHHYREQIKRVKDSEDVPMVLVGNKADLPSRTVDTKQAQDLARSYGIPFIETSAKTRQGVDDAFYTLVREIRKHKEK
# assay.name: Coupled Nucleotide Exchange Assay (Table 16 conditions: 5 min pre-incubation)
# Assay type: biochemical
# stated.conditions: 5 min compound pre-incubation; SOS-mediated nucleotide exchange, AlphaScreen
quantity.name: IC50 (µM)
Could you give me the number in µM? Just the number is fine.

Some compounds with known IC50 results, for comparison:
compound	IC50 (µM)
C=CC(=O)N1CCN(c2nc(=O)n(-c3c(C)ccnc3C(C)C)c3nc(-c4ccccc4F)c(Cl)cc23)[C@@H](C)C1 [Example 40-2]	0.597
C=CC(=O)N1CCN(c2nc(=O)n(-c3c(C)ccnc3C3CC3)c3nc(-c4ccccc4F)c(Cl)cc23)[C@@H](C)C1 (single isomer, unassigned) [Example 45-1]	0.089
C=CC(=O)N1CCN(c2nc(=O)n(-c3ccccc3C(C)(C)C)c3nc(-c4c(O)cccc4F)c(Cl)cc23)[C@@H](C)C1 (single isomer, unassigned) [Example 49-1]	2.58
C=CC(=O)N1CCN(c2nc(=O)n(-c3c(C)ccnc3C(C)C)c3nc(-c4ccccc4F)c(Cl)cc23)[C@@H](C)C1 [Example 40]	0.063

INPUT: Check the records and state IC50 for C=CC(=O)N1CCN(c2nc(=O)n(-c3ccccc3C(C)(C)C)c3nc(-c4c(O)cccc4F)c(Cl)cc23)[C@@H](C)C1 (single isomer, unassigned) [Example 49-2]
OUTPUT: 0.117

INPUT: Give IC50 for C=CC(=O)N1CCN(c2nc(=O)n(-c3c(C)ccnc3C3CC3)c3nc(-c4c(O)cccc4F)c(F)cc23)[C@@H](C)C1 [Example 42-1]
OUTPUT: 0.150

Data provenance is patent US11905281B2.
